Biological target: UmuDAb W192X (Acinetobacter baumannii ATCC 17978 JH, UniProt A0A0D5YJU0 1-191)
Assay: EMSA; Hill 6.1; 60-70% bound above 1 uM; […] (10x = 100 mM Tris, 500 mM KCl, 10 mM DTT, […]
Details: protein: recombinant; chain copies: 2; label: 5' IRDye700 on both strands; blunt
pKd: −log10 of the molar value.
valueType: pKd

- binder: "WT 37 bp UmuDAb operator probe (dsDNA) DNA 1: TCGTCAACTTGAAAATGTAACTTTTTCAAGTTACATT DNA 2: AATGTAACTTGAAAAAGTTACATTTTCAAGTTGACGA"
  testValue: 6.27
